endpoint.label: melting point

Check out these entries, answers already filled in.
[[record]]
smiles_string = "COc1cc(OC)c(C(=O)/C=C/c2ccc(Cl)cc2)c(O)c1CN1CCOCC1"
endpoint_label = "melting point"
reported_measurement = "140 to 141 °C"

[[record]]
smiles_string = "COc1cc(OC)c(C2=CCNCC2)c(O)c1C(=O)/C=C/c1ccccc1"
endpoint_label = "melting point"
reported_measurement = "118 to 120 °C"

[[record]]
smiles_string = "COc1cc(/C=C/C(=O)c2c(OC)cc(OC)c(C3=CCNCC3)c2O)cc(OC)c1OC"
endpoint_label = "melting point"
reported_measurement = "124 to 125 °C"


Next compound, please.
Kindly note the recorded melting point for `COc1cc(OC)c(C2=CCNCC2)c(O)c1C(=O)/C=C/c1ccc(O)cc1` , which is 109 to 110 °C
